Biological target: T1, recombinant human CTGF protein (R&D Systems, SEQ ID NO: 79) (human, UniProt P29279 27-349)
T1 construct: Bought; also called human CTGF/CNN2; huCTGF
T1 sequence: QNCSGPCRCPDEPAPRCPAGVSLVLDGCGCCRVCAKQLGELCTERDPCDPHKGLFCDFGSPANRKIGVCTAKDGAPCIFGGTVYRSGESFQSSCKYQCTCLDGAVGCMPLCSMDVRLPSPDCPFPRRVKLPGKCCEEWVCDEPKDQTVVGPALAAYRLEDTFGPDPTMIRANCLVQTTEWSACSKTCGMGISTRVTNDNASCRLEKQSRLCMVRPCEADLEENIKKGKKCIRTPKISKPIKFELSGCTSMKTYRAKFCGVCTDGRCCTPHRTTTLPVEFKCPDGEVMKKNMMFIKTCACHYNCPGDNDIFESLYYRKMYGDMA
Assay: HTRF, 1 nM biotinylated human CTGF
reportedMetric: EC50 (nM)

binder: fusion protein of SEQ ID NO: 69 (designed binder, not shown: C-terminal His-tag) QDSTSDLIPAPPLSKVPLQQNFQDNQFQGKWYVVGLAGNAILREDKQPAKMFATIYELKEDKSYDVTSVRFEAKSCSYTSKTFVPGSQPGEFTAGNIKSAPGQTSTLVRVVSTNYNQHAMVFFKHVSQNRETFVITLYGRTKELTSELKENFIRFSKSLGLPENHIVFPVPIDQCIDGGGGGSGGGGSGGGGSQDSTSDLIPAPPLSKVPLQQNFQDNQFQGKWYVVGLAGNYRLREDKDPSKMGATIYELKEDKSYDVTQVQFDDKKCLYVIETFVPGSQPGEFTLGAIKSYPGLTSQLVRVVSTNYNQHAMVFVKKVWPNLEYFQIVLYGRTKELTSELKENFIRFSKSLGLPENHIVFPVPIDQCIDG
reportedMetric: EC50
quantitativeReadout: 0.65

From: patent US20240228562A1
